Measured Emax of individual entries
# systemName: LXRβ (Homo sapiens)
# Construct: Co-transfection expression plasmids, comprising full-length LXRα (pCMX-h LXRα[…] or LXRβ (pCMX-hLXRβ)); expressed in transfected cells; host or cells: CV-1 African Green Monkey Kidney Cells
# testDetails: Co-transfection assay (LXRE luciferase reporter), LXRβ
# Format: cell-based
# studyConditions: LXRβ co-transfection; relative to high control 1-(2,4-difluorobenzyl)-2-oxo-6-(4-phenoxyphenyl)-4-(trifluoromethyl)-1,2-dihydropyridine-3-carbonitrile; read-out: % Efficacy
Quick note: give the figure in %, leave out the unit.

Solved entries (count: 2):
>>> df
                                   compound  measuredvalue
0  Cc1nc(C(F)(F)F)cn1-c1ccc(-c2cccc(C(C)(C)C(=O)O)c2)cc1-n1nncc1-c1ccc(OC(F)(F)F)cc1 [Example 95]            139
1  COc1ccc(-c2cnnn2-c2cc(-c3cccc(S(C)(=O)=O)c3)ccc2-n2cc(C(F)(F)F)nc2C)cc1C(F)(F)F [Example 74]             72

Continue with the compound presented below.
**Q:** Could you please provide reported Emax for COCS(=O)(=O)c1cccc(-c2ccc(-n3cc(C(F)(F)F)nc3C)c(-c3nc(C)oc3-c3ccc(OC(F)(F)F)cc3)c2)c1 [Example 539] ? Thanks!
**A:** 81

----------
Measured Emax of individual entries
# systemName: LXRβ (Homo sapiens)
# Construct: Co-transfection expression plasmids, comprising full-length LXRα (pCMX-h LXRα[…] or LXRβ (pCMX-hLXRβ)); expressed in transfected cells; host or cells: CV-1 African Green Monkey Kidney Cells
# testDetails: Co-transfection assay (LXRE luciferase reporter), LXRβ
# Format: cell-based
# studyConditions: LXRβ co-transfection; relative to high control 1-(2,4-difluorobenzyl)-2-oxo-6-(4-phenoxyphenyl)-4-(trifluoromethyl)-1,2-dihydropyridine-3-carbonitrile; read-out: % Efficacy
The reply should consist of the numeric value with the unit placed after it.

Solved entries (count: 2):
In [3]: df
Out[3]:
                                  molsmiles  reportedproperty  measuredvalue
0  Cc1nc(C(F)(F)F)cn1-c1ccc(-c2cccc(C(C)(C)C(N)=O)c2)cc1-c1cnnn1-c1ccc(OC(F)(F)F)cc1              Emax           111%
1  Cc1nc(-c2cc(-c3cc(F)c(CO)c(S(C)(=O)=O)c3)ccc2-n2cc(C(F)(F)F)nc2C)c(-c2cccnc2C2CC2)o1              Emax            51%

Continue with the molecule presented below.
**Q:** Could you please provide reported Emax for Cc1nc(C(C)(F)F)cn1-c1ccc(-c2cccc(S(C)(=O)=O)c2)cc1-n1nncc1-c1ccc(OC(F)(F)F)cc1 ? Thanks!
**A:** 66%

----------
# systemName: LXRβ (Homo sapiens)
# Construct: Co-transfection expression plasmids, comprising full-length LXRα (pCMX-h LXRα[…] or LXRβ (pCMX-hLXRβ)); expressed in transfected cells; host or cells: CV-1 African Green Monkey Kidney Cells
# Sequence (P55055 1-460): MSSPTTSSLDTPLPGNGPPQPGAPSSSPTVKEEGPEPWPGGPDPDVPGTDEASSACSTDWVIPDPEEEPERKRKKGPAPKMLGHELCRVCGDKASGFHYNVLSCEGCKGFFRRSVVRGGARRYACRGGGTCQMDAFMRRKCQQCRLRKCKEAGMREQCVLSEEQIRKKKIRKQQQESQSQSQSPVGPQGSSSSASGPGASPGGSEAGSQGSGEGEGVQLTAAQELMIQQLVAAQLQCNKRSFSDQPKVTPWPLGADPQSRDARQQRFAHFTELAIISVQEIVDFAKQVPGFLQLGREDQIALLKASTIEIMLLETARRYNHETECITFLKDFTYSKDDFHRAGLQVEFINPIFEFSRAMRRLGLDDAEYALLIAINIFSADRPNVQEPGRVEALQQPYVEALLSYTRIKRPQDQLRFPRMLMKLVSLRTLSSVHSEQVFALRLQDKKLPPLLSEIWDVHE
# Sequence (P19793 1-462 partner): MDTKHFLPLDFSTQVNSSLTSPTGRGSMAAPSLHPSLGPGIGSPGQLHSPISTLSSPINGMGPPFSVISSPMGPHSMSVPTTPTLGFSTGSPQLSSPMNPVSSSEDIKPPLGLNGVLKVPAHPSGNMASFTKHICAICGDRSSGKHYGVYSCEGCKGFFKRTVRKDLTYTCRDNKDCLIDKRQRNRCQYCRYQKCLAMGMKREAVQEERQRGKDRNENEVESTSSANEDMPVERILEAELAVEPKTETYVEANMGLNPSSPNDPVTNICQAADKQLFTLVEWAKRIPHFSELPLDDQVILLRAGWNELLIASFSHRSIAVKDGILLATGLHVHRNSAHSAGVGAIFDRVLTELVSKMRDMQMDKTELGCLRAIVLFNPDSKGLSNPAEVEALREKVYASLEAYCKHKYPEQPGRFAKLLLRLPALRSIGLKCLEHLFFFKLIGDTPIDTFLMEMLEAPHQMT
# testDetails: Co-transfection assay (LXRE luciferase reporter), LXRβ
# Type: cell-based
# Set-up: concentration or dose not given beside the values
# studyConditions: LXRβ co-transfection; relative to high control 1-(2,4-difluorobenzyl)-2-oxo-6-(4-phenoxyphenyl)-4-(trifluoromethyl)-1,2-dihydropyridine-3-carbonitrile
reportedProperty: % Efficacy
The reply should consist of the numeric value with the unit placed after it.

Solved entries (count: 2):
compound	% Efficacy
Cc1nc(-c2cc(-c3cccc(S(C)(=O)=O)c3)ccc2-n2cc(C(C)O)nc2C)c(-c2ccc3c(c2)OC(F)(F)O3)o1 (single isomer, unassigned) [Example 514]	77%
Cc1nc(-c2cc(-c3cccc(S(C)(=O)=O)c3)ccc2-n2cc(C(C)O)nc2C)c(-c2ccc3c(c2)OC(F)(F)O3)o1 (single isomer, unassigned) [Example 372]	33%

Continue with the compound presented below.
**Q:** Could you please provide reported % Efficacy for Cc1nc(-c2cc(-c3cc(F)c(CO)c(S(C)(=O)=O)c3)ccc2-n2cc(C(C)O)nc2C)c(-c2ccc3c(c2)OC(F)(F)O3)o1 (single isomer, unassigned) [Example 515] ? Thanks!
**A:** 19%

----------
# systemName: LXRβ (Homo sapiens)
# Construct: Co-transfection expression plasmids, comprising full-length LXRα (pCMX-h LXRα[…] or LXRβ (pCMX-hLXRβ)); expressed in transfected cells; host or cells: CV-1 African Green Monkey Kidney Cells
# testDetails: Co-transfection assay (LXRE luciferase reporter), LXRβ
# Assay type: cell-based
# studyConditions: LXRβ co-transfection; relative to high control 1-(2,4-difluorobenzyl)-2-oxo-6-(4-phenoxyphenyl)-4-(trifluoromethyl)-1,2-dihydropyridine-3-carbonitrile; read-out: % Efficacy
reportedProperty: Emax (%)
Quick note: give the figure in %, leave out the unit.

In [3]: df
Out[3]:
                                  molsmiles           systemname  resultunit  measuredvalue
0  Cc1nc(C(F)(F)F)cn1-c1c(F)cc(-c2cc(F)c(CO)c(S(C)(=O)=O)c2)cc1-n1nncc1-c1ccc(OC(F)(F)F)cc1  LXRβ (Homo sapiens)           %             77
1  Cc1nc(C(F)(F)F)cn1-c1ccc(-c2cc(Cl)c(CO)c(S(C)(=O)=O)c2)cc1-n1nncc1-c1ccc(OC(F)(F)F)cc1  LXRβ (Homo sapiens)           %            101
2  Cc1nc(-c2cc(-c3cc(F)c(CO)c(S(C)(=O)=O)c3)ccc2-n2cc(C(F)(F)F)nc2C)c(-c2ccc(OCC3CC3)c(F)c2)o1  LXRβ (Homo sapiens)           %             59
3  Cc1nc(C(F)(F)F)cn1-c1ccc(-c2cccc(S(C)(=O)=O)c2)cc1-n1nncc1-c1ccc(Cl)c(C#N)c1  LXRβ (Homo sapiens)           %             74
4  Cc1nc(-c2cc(-c3cc(F)c(CO)c(S(C)(=O)=O)c3)ccc2-n2cc(C(F)(F)F)nc2C)c(-c2ccc(SC(F)(F)F)cc2)o1  LXRβ (Homo sapiens)           %             48
5  Cc1cc(-c2cc(-c3ccc(CO)c(S(C)(=O)=O)c3)ccc2-n2cc(C(F)(F)F)nc2C)n(-c2ccc3c(c2)OC(F)(F)O3)n1  LXRβ (Homo sapiens)           %             61
6  CCc1nc(-c2cc(-c3cccc(S(C)(=O)=O)c3)ccc2-n2cc(C(F)(F)F)nc2C)c(-c2ccc3c(c2)OC(F)(F)O3)o1  LXRβ (Homo sapiens)           %             89
7  Cc1nc(C(F)(F)F)cn1-c1ccc(-c2cc(F)c(CO)c(S(C)(=O)=O)c2)cc1-c1nc(C(F)(F)F)cn1-c1ccc2c(c1)OC(F)(F)O2  LXRβ (Homo sapiens)           %             79
8  Cc1nc(C(F)(F)F)cn1-c1ccc(-c2cc(F)c(CO)c(S(C)(=O)=O)c2)cc1-c1ocnc1-c1ccc(OC(F)(F)F)cc1  LXRβ (Homo sapiens)           %             91
9  Cc1nc(C(F)(F)C(C)C)cn1-c1ccc(-c2cc(F)c(CO)c(S(C)(=O)=O)c2)cc1-n1nncc1-c1ccc(OC(F)(F)F)cc1  LXRβ (Homo sapiens)           %             69

**Q:** Could you please provide reported Emax for Cc1nc(-c2cc(-c3cc(F)c(CO)c(S(C)(=O)=O)c3)ccc2-n2cc(C(F)(F)F)nc2C)c(-c2ccc(OC(F)(F)F)cc2)o1 ? Thanks!
**A:** 97

**Q:** Could you please provide reported Emax for Cc1nc(C(F)(F)F)cn1-c1ccc(-c2cccc(C(C)(C)C(N)=O)c2)cc1-n1nncc1C(=O)c1ccc(C(F)(F)F)cc1 ? Thanks!
**A:** 70
